pIC50 data for Lyn full length (Homo sapiens, UniProt P07948) follow.
Value format note: pIC50 is -log10 of concentration (mol/L); just state the number.

Illustrative cases are given below, each with its answer.
Prompt: Give its pIC50 value. Item: Cc1ccc(Cl)cc1-c1[nH]c(-c2nc(N)ncc2C#Cc2cccc(N3CCN(C)CC3)c2)cc1C(N)=O [compound 47]
Completion: 8.22

Prompt: Can you look up the measured pIC50 of Cc1ccc(Cl)cc1-c1[nH]c(-c2nc(N)ncc2C#Cc2ccc(N)cc2)cc1C(N)=O [compound 8] for me?
Completion: 8.70

Prompt: Name the reported pIC50 value associated with the compound Cc1ccc(Cl)cc1-c1[nH]c(-c2nc(N)ncc2C#Cc2ccc(N3CCN(C)CC3)cc2)cc1C(N)=O [compound 11]
Completion: 8.10

Prompt: For the compound Cc1ccc(Cl)cc1-c1[nH]c(-c2ccnc(N)n2)c(C#Cc2ccccc2NC2CCN(C)CC2)c1C(N)=O [compound 94] , what pIC50 is on record?
Completion: 6.18

Prompt: pIC50 for Cc1ccc(Cl)cc1-c1[nH]c(-c2nc(N)ncc2C#Cc2cccc(C(=O)N3CCN(C)CC3)c2)cc1C(N)=O [compound 27] ?
Completion: 9.00

Then this compound:
Prompt: Need pIC50 of Cc1ccc(Cl)cc1-c1[nH]c(-c2ccnc(N)n2)c(C#Cc2ccc(N3CCNCC3)cc2)c1C(N)=O [compound 99] , thanks.
Completion: 7.59

* * *

Each entry below lists one item and its recorded IC50 value.
# Tested on: JAK2 dependent human megakaryoblastic leukemia cell line SET-2
# Assay Remarks: Cell proliferation assay (CellTiter-Glo, 72 hours)
# Assay type: cell-based
# Applied Conditions: Homo sapiens, SET-2 cells
# Procedure: The JAK2 dependent human megakaryoblastic leukemia cell line SET-2 (DSMZ, Braunschweig GERMANY) and the JAK2 independent human chronic myelogenous leukaemia cell line K562 (ECACC, Wiltshire, UK) were cultured in RPMI-1640 medium-Glutamax (Gibco BRL, Gaithesburg, Md., USA), supplemented with 10% fetal bovine serum (FBS) at 37° C. and 5% CO2. Cell Proliferation Assay: […]
Express the result in nM but write the number alone.

Prompt: For JAK2 dependent human megakaryoblastic leukemia cell line SET-2, provide IC50 of Cc1ccc(Cl)cc1-c1[nH]c(-c2ccnc(N)n2)c(C#Cc2ccc(N3CCNCC3)cc2)c1C(N)=O [compound 99] please.
Completion: 410

---
Prompt: Can you look up IC50 on JAK2 dependent human megakaryoblastic leukemia cell line SET-2 for Cc1ccc(Cl)cc1-c1[nH]c(-c2nc(N)ncc2C#Cc2ccc(N)cc2)cc1C(N)=O [compound 8] ?
Completion: 140

Prompt: Give IC50 (JAK2 dependent human megakaryoblastic leukemia cell line SET-2) of the following compound: Cc1ccc(Cl)cc1-c1[nH]c(-c2nc(N)ncc2C#Cc2ccc(CN3CCCCC3)cc2)cc1C(N)=O [compound 67]
Completion: 190

Prompt: Form field - read-out: IC50; system: JAK2 dependent human megakaryoblastic leukemia cell line SET-2; submitted item: Cc1ccc(Cl)cc1-c1[nH]c(-c2ccnc(N)n2)c(C#Cc2ccccc2NC2CCN(C)CC2)c1C(N)=O [compound 94]
Completion: 290

Prompt: Under JAK2 dependent human megakaryoblastic leukemia cell line SET-2: IC50 value of Cc1ccc(Cl)cc1-c1[nH]c(-c2nc(N)ncc2C#CC2CC2)cc1C(N)=O [compound 38] ?
Completion: 570

Prompt: API: value(readout= IC50, system= JAK2 dependent human megakaryoblastic leukemia cell line SET-2, query= CCc1ccc(Cl)cc1-c1[nH]c(-c2ccnc(N)n2)c(C#Cc2ccc(N3CCN(C)CC3)cc2)c1C(N)=O [compound 103] )
Completion: 180

* * *

# Assayed System: JAK2 kinase domain (Homo sapiens, UniProt O60674)
# Sequence (O60674 849-1124 limits assumed): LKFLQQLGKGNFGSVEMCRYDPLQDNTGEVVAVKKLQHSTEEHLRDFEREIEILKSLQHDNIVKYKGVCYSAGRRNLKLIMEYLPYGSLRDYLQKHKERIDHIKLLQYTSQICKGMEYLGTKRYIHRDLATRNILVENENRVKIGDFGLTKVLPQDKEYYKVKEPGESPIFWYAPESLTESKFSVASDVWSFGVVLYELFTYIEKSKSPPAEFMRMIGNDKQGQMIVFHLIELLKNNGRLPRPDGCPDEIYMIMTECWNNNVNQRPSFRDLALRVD
Values of IC50 strictly less than 5 nM map to Condition met, and values of at least 5 nM map to Condition not met.

Use the examples below as a reference point.
Prompt: IC50 strictly < 5 nM for this compound? COc1ccc(NC2CCN(C)CC2)cc1C#Cc1cnc(N)nc1-c1cc(C(N)=O)c(-c2cc(Cl)ccc2C)[nH]1
Completion: Condition met

Prompt: I'd appreciate it if you could check whether COc1ccc(N2CCN(C)CC2)cc1C#Cc1c(-c2ccnc(N)n2)[nH]c(-c2cc(Cl)ccc2C)c1C(N)=O has IC50 smaller than 5 nM.
Completion: Condition met

Prompt: Decide: IC50 of Cc1ccc(Cl)cc1-c1[nH]c(-c2ccnc(N)n2)c(C#Cc2ccccc2NC2CCN(C)CC2)c1C(N)=O strictly below 5 nM?
Completion: Condition not met

Prompt: Identify whether the compound Cc1ccc(Cl)cc1-c1[nH]c(-c2nc(N)ncc2C#Cc2cccc(O)c2)cc1C(N)=O records IC50 below 5 nM.
Completion: Condition met

Prompt: For Cc1ccc(Cl)cc1-c1[nH]c(-c2nc(N)ncc2C#CCN2CCN(C)CC2)cc1C(N)=O , is the recorded IC50 below the cut-off of 5 nM?
Completion: Condition not met

Prompt: Does the reported IC50 of the following compound sit strictly below 5 nM? Cc1ccc(Cl)cc1-c1[nH]c(-c2nc(N)ncc2C#Cc2cccc(N)c2)cc1C(N)=O
Completion: Condition met

Prompt: Confirm or reject: IC50 of Cc1ccc(Cl)cc1-c1[nH]c(-c2nc(N)ncc2C#Cc2ccc(N3CCC[C@H]3CN3CCCC3)cc2)cc1C(N)=O lies strictly below 5 nM
Completion: Condition met

Prompt: Hello, is IC50 of the following compound strictly smaller than 5 nM? COc1cc(N2CCN(C)CC2)ccc1C#Cc1cnc(N)nc1-c1cc(C(N)=O)c(-c2cc(Cl)ccc2C)[nH]1
Completion: Condition not met

Prompt: Problem: For the compound Cc1ccc(Cl)cc1-c1[nH]c(-c2nc(N)ncc2C#Cc2ccc(Br)cc2)cc1C(N)=O , is IC50 under 5 nM?
Completion: Condition not met

Prompt: Problem: For the compound Cc1ccc(Cl)cc1-c1[nH]c(-c2nc(N)ncc2C#Cc2ccc(N3CCN(C)CC3)cc2F)cc1C(N)=O , is IC50 under 5 nM?
Completion: Condition not met

Could you now look at the following compound, please?
Prompt: # check: IC50 < 5 nM for Cc1ccc(Cl)cc1-c1[nH]c(-c2nc(N)ncc2C#Cc2cccc(NC3CCOCC3)c2)cc1C(N)=O
Completion: Condition met

* * *

# Assayed System: Lyn full length (Homo sapiens, UniProt P07948)
# Sequence (P07948 whole entry): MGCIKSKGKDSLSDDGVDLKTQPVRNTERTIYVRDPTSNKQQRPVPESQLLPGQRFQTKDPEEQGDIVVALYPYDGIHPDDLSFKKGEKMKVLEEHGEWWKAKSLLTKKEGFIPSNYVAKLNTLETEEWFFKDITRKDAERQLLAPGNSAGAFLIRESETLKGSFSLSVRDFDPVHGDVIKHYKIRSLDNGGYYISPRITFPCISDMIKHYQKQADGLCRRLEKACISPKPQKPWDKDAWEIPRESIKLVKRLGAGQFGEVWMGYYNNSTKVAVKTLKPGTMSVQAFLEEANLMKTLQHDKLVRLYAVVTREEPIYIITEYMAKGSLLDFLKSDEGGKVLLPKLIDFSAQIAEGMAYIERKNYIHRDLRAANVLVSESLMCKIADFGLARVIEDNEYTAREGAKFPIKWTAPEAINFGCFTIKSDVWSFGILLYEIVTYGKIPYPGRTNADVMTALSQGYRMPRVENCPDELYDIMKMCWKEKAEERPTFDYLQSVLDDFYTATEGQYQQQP
Items are presented alongside their recorded IC50.
Expressed in nM, but write only the number.

Solved cases below.
Prompt: Provide value of IC50 for this record tested with Lyn full length (Homo sapiens, UniProt P07948): COc1ccc(N2CCN(C)CC2)cc1C#Cc1c(-c2ccnc(N)n2)[nH]c(-c2cc(Cl)ccc2C)c1C(N)=O [compound 86]
Completion: 1

Prompt: Missing value: IC50, Lyn full length (Homo sapiens, UniProt P07948), entry Cc1ccc(Cl)cc1-c1[nH]c(-c2ccnc(N)n2)c(C#Cc2ccc(N3CCN(C)CC3)cc2)c1C(N)=O [compound 83] . Fill in?
Completion: 9

Prompt: Recall the recorded IC50 for COc1ccc(N2CCN(C)CC2)cc1C#Cc1cnc(N)nc1-c1cc(C(N)=O)c(-c2cc(Cl)ccc2C)[nH]1 [compound 34] with Lyn full length (Homo sapiens, UniProt P07948) and state it.
Completion: 20

Others:
Prompt: Entry Cc1ccc(Cl)cc1-c1[nH]c(-c2ccnc(N)n2)c(C#Cc2cccc(N3CCN(C)CC3)c2)c1C(N)=O [compound 90] , system Lyn full length (Homo sapiens, UniProt P07948): what IC50 was measured?
Completion: 5

Prompt: Find the measured IC50: item Cc1ccc(Cl)cc1-c1[nH]c(-c2nc(N)ncc2C#CCN2CCN(C)CC2)cc1C(N)=O [compound 50] , target or system Lyn full length (Homo sapiens, UniProt P07948).
Completion: 26

Prompt: Quick check: IC50 on Lyn full length (Homo sapiens, UniProt P07948), item Cc1ccc(Cl)cc1-c1[nH]c(-c2ccnc(N)n2)c(C#Cc2cccc(CN3CCN(C)CC3)c2)c1C(N)=O [compound 81] ?
Completion: 3

Prompt: Query the reported IC50 for Lyn full length (Homo sapiens, UniProt P07948); item: Cc1ccc(Cl)cc1-c1[nH]c(-c2nc(N)ncc2C#Cc2ccc(OC3CCN(C)CC3)cc2)cc1C(N)=O [compound 48]
Completion: 8

Prompt: Entry Cc1ccc(Cl)cc1-c1[nH]c(-c2nc(N)ncc2C#Cc2cccc(CN3CCN(C)CC3)c2)cc1C(N)=O [compound 24] , system Lyn full length (Homo sapiens, UniProt P07948): what IC50 was measured?
Completion: 5

Prompt: Fill in the recorded IC50 for this compound, with Lyn full length (Homo sapiens, UniProt P07948) as test system: COc1cc(N2CCN(C)CC2)ccc1C#Cc1cnc(N)nc1-c1cc(C(N)=O)c(-c2cc(Cl)ccc2C)[nH]1 [compound 46]
Completion: 18

Prompt: Give Lyn full length (Homo sapiens, UniProt P07948) IC50 for CCc1ccc(Cl)cc1-c1[nH]c(-c2ccnc(N)n2)c(C#Cc2cccc(OC3CCN(C)CC3)c2)c1C(N)=O [compound 102]
Completion: 6

Prompt: Give recorded IC50 with Lyn full length (Homo sapiens, UniProt P07948) for the following compound: Cc1ccc(Cl)cc1-c1[nH]c(-c2nc(N)ncc2C#Cc2ccc(N3CCC(O)CC3)cc2)cc1C(N)=O [compound 28]
Completion: 1

Prompt: Requested read-out IC50, target or system Lyn full length (Homo sapiens, UniProt P07948), entry Cc1ccc(Cl)cc1-c1[nH]c(-c2ccnc(N)n2)c(C#Cc2ccc(N3CCC(N4CCN(C)CC4)CC3)cc2)c1C(N)=O [compound 95]
Completion: 281
